Measured values drawn from the supplement of paper PMC9170038 for this set.

System: MS2 coat protein
Assay: apparent KD of MS2 coat protein, switch ON state; designed switch direction (-1 OFF switch, 1 ON switch): -1; higher = weaker reporter binding
Conditions: FMN input: 0 or 200 uM; Eterna round: R93 (includes R88 designs)
Hi there, I'd appreciate the recorded apparent KD of MS2 coat protein for every entry that follows.
Write the answer as a number in nM, unit excluded.

Task: Report apparent KD of MS2 coat protein for AAAAAGUGAGGAUAUACGCUGAGGAGUAGACACAACCUGGCGUAGAAGGCACAUGAGGAUCACCCAUGUCCAAA [EX4 Malc#12] please.
Result: 24.3

Task: Given GAAAAUGGAGGAUAUACAUGAGGAUCACCCAUGUGUAAAAAAAAUUACACAAAAGAAAGUAGAAGGCCAUAAAG [Mat - Exclusion 3 - Mayanna mod - D106] , state its recorded apparent KD of MS2 coat protein.
Result: 49.8

Task: Field request: apparent KD of MS2 coat protein | item: AACAGUACAGGAUAUACAUGAGGAUCACCCAUGUGAAAAUUAAGUGGGAAACCACAGUGUAGAAGGGUACUGGA [Mat - Exclusion 3 - Eli mod - D54]
Result: 102

Task: I would be grateful if you could share the reported apparent KD of MS2 coat protein for AAGUUAUUAGGAUAUACUAGUGCAAUUAAUACGCUGAUAGUACAUGAGGAUCACCCAUGUAGAAGGAAUAAAAA [Mat - Exclusion 2 - JL mod - D66] .
Result: 30.5

Task: Given AGGAAACAUGAGGAUCACCCAUGUCAGGAUAUACAAAAGAAAAGAAAAGAAAGAAGAAGUAGAAGGGACACGAA [Double Falcon] , state its recorded apparent KD of MS2 coat protein.
Result: 25.1

Task: Recorded apparent KD of MS2 coat protein for AGCUAGUCAGGAUAUACGAAAAUGCUAGAAGACGUAAGGGAACAUGAGGAUCACCCAUGUAGAAGGGACUAGCA [Diamond 46] , please?
Result: 21.9

---

Would you mind telling me the reported apparent KD of K4 kissing-loop reporter of each entry?
Test system: K4 kissing-loop RNA reporter
Assay: apparent KD of K4 kissing-loop reporter; higher = weaker reporter binding
Settings: Eterna round: R107; input ligand: theophylline 20 uM
# unit: nM | format: bare number

Task: Provide value of apparent KD of K4 kissing-loop reporter for this record tested with K4 kissing-loop RNA reporter: GCCGUAGAUUGAAGGAGCGUGGAACUAUGGCUUGAACAGUGAUGUUGUUUAUCUAGGUAGCCGCAGGUAGGUCGCAAUCUACGGC
Result: 239

Task: Field: apparent KD of K4 kissing-loop reporter (K4 kissing-loop RNA reporter). Entry: GCCGUAGAUGGAAGGAGCGUGCCUUUCAGUUAUAGUGAUGUUAUAACCGAGGAACGGUUGGCACAGGUAGGUCGCCAUCUACGGC
Result: 112

Task: Checklist item: apparent KD of K4 kissing-loop reporter tested on K4 kissing-loop RNA reporter, entry CCUAUCUCAUACGAUACCAGUCUAUUAAAACGAGUGAUGUUCGAAUAUUUGCCAUAUAAUGACCCUUGGCAGCGUAUGGGAUAGG [Ex Theophylline B K4 9] , value?
Result: 230

---

Hi there, I'd appreciate the recorded apparent KD of K4 kissing-loop reporter for every entry that follows.
Test system: K4 kissing-loop RNA reporter
Assay: apparent KD of K4 kissing-loop reporter; higher = weaker reporter binding
Conditions: Eterna round: R107; input ligand: arginine 13.2 mM
Provide only the numeric value, understood in nM.

Task: # get_value(readout= apparent KD of K4 kissing-loop reporter, system= K4 kissing-loop RNA reporter) for UGUUAUGUAUCAGGAUAUUAGUGAUGUUUGUUUAUGUUAGUGAUGUUGAUAUUUGUUUUAUGUAUUUAAGAAGGGAUUGAGAAGU [ffcfxmullin]
Result: 21.4

Task: What apparent KD of K4 kissing-loop reporter appears in the records for this sequence with K4 kissing-loop RNA reporter? AGUGGACGUGUCUGGAGUGAUGUUCUGGAUACCAGACACGAAAGUGUCCCUUGGCAGCCGGAGUGAUGUUCCGGCGUUCACUAAA [Omei KL Theo A Exc B v5]
Result: 239

Task: API: value(readout=apparent KD of K4 kissing-loop reporter, system=K4 kissing-loop RNA reporter) for record UGGAGUUGACGAAAAGUCAACUCCUGGGAAGGAGCGGACGAAAGUCCAGGUAGGUCGCCCACUACCAGUGAUGUUGGUACUCAAA
Result: 196

Task: Form field: apparent KD of K4 kissing-loop reporter recorded for AAAACUAUCAGAAGGAGCGUGGAAUAUUCAUCUAUAUUUAAUACGAGUGAUGUUCGUAAUUCACAGGUAGGUCGCUGAUCAAUAA [JR_ExcArginiB_Sub007] with K4 kissing-loop RNA reporter (enter value)
Result: 251

Task: Record UUUCUACCGGGAAGGAGCGUGAAUGAUAAUGGAUAUAGUGAUGUUAUAUAUACGAACGAAUCGCAGGUAGGUCGCCCGGAUGACU [SSArgB.T] : what is its apparent KD of K4 kissing-loop reporter with K4 kissing-loop RNA reporter?
Result: 503

Task: Please state recorded apparent KD of K4 kissing-loop reporter (tested on K4 kissing-loop RNA reporter) of AAGUGAUGUUGUAGUGAUGUUGUGAUGUUGCAGGAUAUAUAGUGAUGUAGAAGGGUAAGGACUGUUUUUUUUUUUGAGUGAUGUU [ookooyzrmullin];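 also: bound reporter read as fluorescence of individual clusters on recovered sequencing chips by microscopy, with normalized cluster intensities fitted with a binding model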
Result: 41.4
